target: Thromboxane-A synthase (Rattus norvegicus); assay: Tested for antihypertensive activity in spontaneously hypertensive rats at 100 mg/kg peroral dosage for 2 days; I is inactive; type: functional, organism-based; parameters: dose 100 mg/kg
Calls of active or inactive are those of the source. The rule behind the calls is not given here.
quantity-kind: Activity

Consider the worked cases shown below.
1. O=c1[nH]c2ccc(Cl)cc2c(=O)n1CCCCCCCCCCn1ccnc1 : inactive
2. Cc1ccc2[nH]c(=O)n(CC(C)Cn3ccnc3)c(=O)c2c1 (configuration not stated) : inactive
3. Nc1c(Cl)cccc1C(=O)NCCCCCn1ccnc1 : inactive
4. O=C(O)c1ccc(OCCn2ccnc2)cc1 : inactive
5. O=c1[nH]c2ccc(Cl)cc2c(=O)n1CCCCCCCCn1ccnc1 : inactive

Field: Activity. Fill in for each record below.
1. O=c1c2cc(Cl)ccc2nnn1CCCn1ccnc1
2. O=c1c2ccccc2nnn1CCCCCn1ccnc1
3. O=c1[nH]c2cc(Cl)ccc2c(=O)n1CCCn1ccnc1
4. CC(Cn1ccnc1)Cn1nnc2ccc(Br)cc2c1=O (configuration not stated)

A:
1. inactive
2. inactive
3. inactive
4. inactive
